Origin of measurements: ChEMBL document CHEMBL3885861

Overview of recorded TG for various compounds
- Organism: Rattus norvegicus
- assayProtocol: Open TG-GATES - Regimen: Single
- Format: toxicity, organism-based, Sprague-Dawley
- Parameters: regimen Single, gender Male, age 6 weeks
- testContext: in vivo, po, 0 mg/kg, 6 h, tissue Plasma, route gavage, dose level Control
# value in mg/dL; strip the unit string

Use the examples below as a reference point.
TG recorded for this compound, COC(=O)C1=C(C)NC(C)=C(C(=O)OC)C1c1ccccc1[N+](=O)[O-] , is 56

TG recorded for this compound, Nc1c2c(nc3ccccc13)CCCC2 , is 82

TG recorded for this compound, CCCc1cc(=O)[nH]c(=S)[nH]1 , is 33.4

TG recorded for this compound, NC1=NC(=O)C(c2ccccc2)O1 (stereo not drawn) , is 46.8

TG recorded for this compound, CCOc1ccc(NC(C)=O)cc1 , is 50

More entries:
TG recorded for this compound, CNC(=C[N+](=O)[O-])NCCSCc1ccc(CN(C)C)o1 , is 55.4

TG recorded for this compound, O=C(OC[C@H]1O[C@@H](OC(=O)c2cc(O)c(O)c(OC(=O)c3cc(O)c(O)c(O)c3)c2)[C@H](OC(=O)c2cc(O)c(O)c(OC(=O)c3cc(O)c(O)c(O)c3)c2)[C@@H](OC(=O)c2cc(O)c(O)c(OC(=O)c3cc(O)c(O)c(O)c3)c2)[C@@H]1OC(=O)c1cc(O)c(O)c(OC(=O)c2cc(O)c(O)c(O)c2)c1)c1cc(O)c(O)c(OC(=O)c2cc(O)c(O)c(O)c2)c1 , is 40.6

TG recorded for this compound, Brc1ccccc1 , is 37.8

TG recorded for this compound, CN1C(=O)CCS(=O)(=O)C1c1ccc(Cl)cc1 (stereo not drawn) , is 54.4

TG recorded for this compound, CN(C)CCC(c1ccc(Cl)cc1)c1ccccn1 (stereo not drawn) , is 49.2

TG recorded for this compound, Cc1nnc2n1-c1ccc(Cl)cc1C(c1ccccc1Cl)=NC2 , is 51.6

TG recorded for this compound, CN/C(=N/CCSCc1nc[nH]c1C)NC#N , is 64.4

TG recorded for this compound, CC(C)NNC(=O)c1ccncc1 , is 62.6

----------
- Species: Rattus norvegicus
- assayProtocol: Open TG-GATES - Regimen: Single
- Assay type: toxicity, organism-based, Sprague-Dawley
- Parameters: regimen Single, gender Male, age 6 weeks
- testContext: in vivo, po, 100 mg/kg, 9 h, tissue Plasma, route gavage, dose level Low
Overview of recorded Na for various compounds
# value in meq/L; strip the unit string

Use the examples below as a reference point.
Na recorded for this compound, CNC(=C[N+](=O)[O-])NCCSCc1ccc(CN(C)C)o1 , is 140.4

Na recorded for this compound, O=C(OC[C@H]1O[C@@H](OC(=O)c2cc(O)c(O)c(OC(=O)c3cc(O)c(O)c(O)c3)c2)[C@H](OC(=O)c2cc(O)c(O)c(OC(=O)c3cc(O)c(O)c(O)c3)c2)[C@@H](OC(=O)c2cc(O)c(O)c(OC(=O)c3cc(O)c(O)c(O)c3)c2)[C@@H]1OC(=O)c1cc(O)c(O)c(OC(=O)c2cc(O)c(O)c(O)c2)c1)c1cc(O)c(O)c(OC(=O)c2cc(O)c(O)c(O)c2)c1 , is 137.6

Na recorded for this compound, Cc1nnc2n1-c1ccc(Cl)cc1C(c1ccccc1Cl)=NC2 , is 141

Na recorded for this compound, CN/C(=N/CCSCc1nc[nH]c1C)NC#N , is 141.4

In the following, a different compound is considered.
Na recorded for this compound, COC(=O)C1=C(C)NC(C)=C(C(=O)OC)C1c1ccccc1[N+](=O)[O-] , is 138.6

----------
Overview of recorded KIDNEY_R for various molecules
- Organism: Rattus norvegicus
- assayProtocol: Open TG-GATES - Regimen: Daily Repeat
- Assay type: toxicity, organism-based, Sprague-Dawley
- Design: regimen Daily Repeat, gender Male, age 6 weeks
- testContext: in vivo, po, 1000 mg/kg, 72 h, tissue Kidney, route gavage, dose level High, time 3 day
# value in g; strip the unit string

KIDNEY_R recorded for this molecule, CCOc1ccc(NC(C)=O)cc1 , is 0.9

KIDNEY_R recorded for this molecule, COC(=O)C1=C(C)NC(C)=C(C(=O)OC)C1c1ccccc1[N+](=O)[O-] , is 0.9

KIDNEY_R recorded for this molecule, Cc1nnc2n1-c1ccc(Cl)cc1C(c1ccccc1Cl)=NC2 , is 1

KIDNEY_R recorded for this molecule, CNC(=C[N+](=O)[O-])NCCSCc1ccc(CN(C)C)o1 , is 1

KIDNEY_R recorded for this molecule, CN/C(=N/CCSCc1nc[nH]c1C)NC#N , is 1

In the following, a different molecule is considered.
KIDNEY_R recorded for this molecule, O=C(OC[C@H]1O[C@@H](OC(=O)c2cc(O)c(O)c(OC(=O)c3cc(O)c(O)c(O)c3)c2)[C@H](OC(=O)c2cc(O)c(O)c(OC(=O)c3cc(O)c(O)c(O)c3)c2)[C@@H](OC(=O)c2cc(O)c(O)c(OC(=O)c3cc(O)c(O)c(O)c3)c2)[C@@H]1OC(=O)c1cc(O)c(O)c(OC(=O)c2cc(O)c(O)c(O)c2)c1)c1cc(O)c(O)c(OC(=O)c2cc(O)c(O)c(O)c2)c1 , is 1

----------
- Species on record: Rattus norvegicus
- assayProtocol: Open TG-GATES - Regimen: Daily Repeat
- Format: toxicity, organism-based, Sprague-Dawley
- Set-up: regimen Daily Repeat, gender Male, age 6 weeks
- testContext: in vivo, po, 0 mg/kg, […], tissue Plasma, route gavage, dose level Control, time 28 day
Overview of recorded LDH for various compounds
# value in IU/L; strip the unit string

LDH recorded for this compound, CC(C)NNC(=O)c1ccncc1 , is 171.2

LDH recorded for this compound, CCOc1ccc(NC(C)=O)cc1 , is 76.6

LDH recorded for this compound, COC(=O)C1=C(C)NC(C)=C(C(=O)OC)C1c1ccccc1[N+](=O)[O-] , is 66

LDH recorded for this compound, CN/C(=N/CCSCc1nc[nH]c1C)NC#N , is 151.6

LDH recorded for this compound, NC1=NC(=O)C(c2ccccc2)O1 (stereo not drawn) , is 68.8

LDH recorded for this compound, CN1C(=O)CCS(=O)(=O)C1c1ccc(Cl)cc1 (stereo not drawn) , is 57

LDH recorded for this compound, Nc1c2c(nc3ccccc13)CCCC2 , is 165.2

LDH recorded for this compound, Brc1ccccc1 , is 71.4

More entries:
LDH recorded for this compound, O=C(OC[C@H]1O[C@@H](OC(=O)c2cc(O)c(O)c(OC(=O)c3cc(O)c(O)c(O)c3)c2)[C@H](OC(=O)c2cc(O)c(O)c(OC(=O)c3cc(O)c(O)c(O)c3)c2)[C@@H](OC(=O)c2cc(O)c(O)c(OC(=O)c3cc(O)c(O)c(O)c3)c2)[C@@H]1OC(=O)c1cc(O)c(O)c(OC(=O)c2cc(O)c(O)c(O)c2)c1)c1cc(O)c(O)c(OC(=O)c2cc(O)c(O)c(O)c2)c1 , is 63.6

LDH recorded for this compound, CNC(=C[N+](=O)[O-])NCCSCc1ccc(CN(C)C)o1 , is 126.8

LDH recorded for this compound, CCCc1cc(=O)[nH]c(=S)[nH]1 , is 84

LDH recorded for this compound, CN(C)CCC(c1ccc(Cl)cc1)c1ccccn1 (stereo not drawn) , is 77.4

LDH recorded for this compound, Cc1nnc2n1-c1ccc(Cl)cc1C(c1ccccc1Cl)=NC2 , is 57

----------
- Organism: Rattus norvegicus
- assayProtocol: Open TG-GATES - Regimen: Daily Repeat
- Type: toxicity, organism-based, Sprague-Dawley
- Set-up: regimen Daily Repeat, gender Male, age 6 weeks
- testContext: in vivo, po, 0 mg/kg, […], tissue Plasma, route gavage, dose level Control, time 7 day
reportedEndpoint: IP

Use the examples below as a reference point.
IP recorded for this molecule, O=C(OC[C@H]1O[C@@H](OC(=O)c2cc(O)c(O)c(OC(=O)c3cc(O)c(O)c(O)c3)c2)[C@H](OC(=O)c2cc(O)c(O)c(OC(=O)c3cc(O)c(O)c(O)c3)c2)[C@@H](OC(=O)c2cc(O)c(O)c(OC(=O)c3cc(O)c(O)c(O)c3)c2)[C@@H]1OC(=O)c1cc(O)c(O)c(OC(=O)c2cc(O)c(O)c(O)c2)c1)c1cc(O)c(O)c(OC(=O)c2cc(O)c(O)c(O)c2)c1 , is 8.1 mg/dL

IP recorded for this molecule, CC(C)NNC(=O)c1ccncc1 , is 6.8 mg/dL

IP recorded for this molecule, CN/C(=N/CCSCc1nc[nH]c1C)NC#N , is 8 mg/dL

IP recorded for this molecule, CN1C(=O)CCS(=O)(=O)C1c1ccc(Cl)cc1 (configuration not stated) , is 6.9 mg/dL

More entries:
IP recorded for this molecule, CN(C)CCC(c1ccc(Cl)cc1)c1ccccn1 (configuration not stated) , is 8.1 mg/dL

IP recorded for this molecule, CNC(=C[N+](=O)[O-])NCCSCc1ccc(CN(C)C)o1 , is 7.4 mg/dL

IP recorded for this molecule, CCOc1ccc(NC(C)=O)cc1 , is 7.1 mg/dL
